The values you see were collected from the supplement of paper PMC12042874.

Assay: amyloid nucleation score (Sup35N fusion, yeast selection) (log enrichment); library NNK1; higher = more nucleation; inactive = no reads after selection;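 also: zero at mode of non-aggregating sequences after 7 days selection at 30°C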

seq-string: MAGSSMTISVLYSWIP
amyloid nucleation score: inactive

seq-string: VGNRCGVL
amyloid nucleation score: 0.05

seq-string: SILSWLFSWTMLEEVI
amyloid nucleation score: inactive

----------
Assay: amyloid nucleation score (Sup35N fusion, yeast selection) (log enrichment); library NNK1; higher = more nucleation; inactive = no reads after selection
Exercise: for every item that follows, state its recorded amyloid nucleation score.
Give bare numbers.

Here are 2 substances together with their reported answers.
substance: CSSPRTTLEYWNCFFDHWWS
quantitative-readout: 2.64
--
substance: PLPVNPYPTHATIGWPRISG
quantitative-readout: -0.427

Note: attention shifts to another entry.
**Query** Field request: amyloid nucleation score | item: QWGNLFLWKTIAESLLRD
**Result** 1.47

----------
Assay: amyloid nucleation score (Sup35N fusion, yeast selection) (log enrichment); library NNK3; higher = more nucleation; inactive = no reads after selection
parameter: amyloid nucleation score

Recorded results for 5 sequences are shown here.
seq-string: GNMQVRYRIESANNRMGQRE
parameter: amyloid nucleation score
result: 0.261
--
seq-string: LPRTYRKALVPNVVVFSYLT
parameter: amyloid nucleation score
result: inactive
--
seq-string: YFFSVAISKVYDFSVKSRCT
parameter: amyloid nucleation score
result: 1.98
--
seq-string: LFLMWRTYYVNILESSCVVC
parameter: amyloid nucleation score
result: inactive
--
seq-string: HSVIPWDTISDTA
parameter: amyloid nucleation score
result: inactive

Shifting focus to the sequence that follows.
**Query** Look at this sequence and give its reported amyloid nucleation score. TDRVNFSRLFSLIHDWLTPG
**Result** inactive

----------
Hi there, I'd appreciate the recorded amyloid nucleation score for every entry that follows.
Experiment: amyloid nucleation score (Sup35N fusion, yeast selection) (log enrichment); library NNK2; higher = more nucleation; inactive = no reads after selection
Give bare numbers.

substance: ITGTFF
amyloid nucleation score: 1.99

Okay, here is my list. What is amyloid nucleation score for each of these?
1. DLSNSIVLLGFDNSQWLRDA
2. FFVFGSWPHSSQGEGSLHKG

**Result**
[1.78, 0.387]

// for each substance in input: emit amyloid nucleation score
1. GLPYVSMINLHASYTERMVW
2. ISCGVSLPIANCTMTHIARV
3. GTGIHLLLLVGSGDSSREMM
4. DNYITLIAMKGYKTAYSTVS
5. SYLDILCVRIVSHHCSVSSK
6. HAKTWM
7. VVQQLIRKITVFSLRLVLNK
8. NFTSFAYFELEDALWSWRRL

**Result**
-0.687
-0.23
-1.08
-0.116
0.112
0.066
4.16
1.16

Your task in this section: give amyloid nucleation score for each listed record.
1. TVMLCSMISYKAVLVTYVGG
2. VFVRRVGPQLFDPRSSNGVD
3. SHMIRYRSVDRVHGLFHPQS

**Result**
1: 1.87; 2: 0.951; 3: -0.232

----------
Assay: amyloid nucleation score (Sup35N fusion, yeast selection) (log enrichment); library NNK3; higher = more nucleation; inactive = no reads after selection
parameter: amyloid nucleation score

Some sequences with known amyloid nucleation score results, for comparison:
seq-string: TYSNMCVSDVLCLTLT
amyloid nucleation score: 2.38

seq-string: VLSRGDMATFTTVMMRRDAH
amyloid nucleation score: inactive

seq-string: YLTGTMSVEFRPHGMPNLSK
amyloid nucleation score: 1.82

seq-string: NVSFCDDASARANVYHLGKS
amyloid nucleation score: inactive

seq-string: QSSIVWCVSFIKSRCDFSIC
amyloid nucleation score: inactive

**Query** Form field: reported amyloid nucleation score of CIAPILFPALAHQLLLAKGH
**Result** inactive

----------
Experiment: amyloid nucleation score (Sup35N fusion, yeast selection) (log enrichment); library NNK2; higher = more nucleation; inactive = no reads after selection

seq-string: RCVYNTKVREMPVLVGLRQD
amyloid nucleation score: inactive
--
seq-string: GYYGARFLVFKFMVRRWMMT
amyloid nucleation score: inactive
--
seq-string: TSAPSKSLLLGVIIIGAFPD
amyloid nucleation score: inactive

----------
Assay: amyloid nucleation score (Sup35N fusion, yeast selection) (log enrichment); library NNK1; higher = more nucleation; inactive = no reads after selection
parameter: amyloid nucleation score
Give bare numbers.

substance: RHSGDFLVFMYKGVLVWSTG
quantitative-readout: 3.24
--
substance: ALMDTCSVSSARGHDPCNRP
quantitative-readout: -0.413
--
substance: IWILYLAFIVHKNVLLPRVL
quantitative-readout: 0.123

Batch request: amyloid nucleation score for each of the following substances.
1. NSPPSDHSLKV
2. ALTVTCFLVPGSYIIHVGMK
3. WAMSTFSVYSKRTFVARWDK
4. LNINSKYLNLICYHIRHLAV
5. ISVGCF
6. NSCQNPSEGF
7. IRTPYIWLTCRGPYEVRRWD
8. EVHGFNRCGLKSIRVHKVYA

**Result**
[-0.195, -0.332, 0.048, -0.593, 0.201, -0.376, -0.247, 0.839]

Batch: amyloid nucleation score for all items listed.
1. EMSRGHLHTSFRVYIQMLGG
2. SQIASVINAQSSMCRFV
3. LCFLTSIQCTALLDHQLVPR
4. IKDNITGKSSYGM
5. DALYLFWVMGRMVRDRV
6. LNGTLSCNAISFFIMFA

**Result**
1: 4.54; 2: -0.023; 3: 6.17; 4: 0.418; 5: 0; 6: 0.846

**Query** // lookup amyloid nucleation score for WRVSVKVVSAELEGMRNFAV
**Result** 0.259

----------
Test: amyloid nucleation score (Sup35N fusion, yeast selection) (log enrichment); library NNK1; higher = more nucleation; inactive = no reads after selection
parameter: amyloid nucleation score

// known answers, use as guide
seq-string: YSMLCLKYL
amyloid nucleation score: inactive
//
seq-string: YMKMMYAIYCLWLRHYSMLF
amyloid nucleation score: inactive
//
seq-string: RPEISTPFMYGYFVSGVGVA
amyloid nucleation score: inactive
//
seq-string: SLMRPCKCNAYCMIELITLY
amyloid nucleation score: inactive
//
seq-string: RPPNISLSQFYDVSCAKLRC
amyloid nucleation score: 0.295

**Query** Report amyloid nucleation score for TCIDVQQYDCLVFFYFLHGF please.
**Result** inactive

----------
Assay: amyloid nucleation score (Sup35N fusion, yeast selection) (log enrichment); library NNK1; higher = more nucleation; inactive = no reads after selection
parameter: amyloid nucleation score

As a guide, the following entries are already answered.
seq-string: SVFISNERL
amyloid nucleation score: inactive

seq-string: IISGIIIRYIDYNYRD
amyloid nucleation score: inactive

seq-string: VMKDTQLLCNFRVSRVLMFE
amyloid nucleation score: inactive

seq-string: YYNNLRVSSYQSKFPIMAMF
amyloid nucleation score: inactive

seq-string: RFMCWVFTGCLGLSGNSSC
amyloid nucleation score: 1.95

Here is another sequence to look at.
**Query** Given the entry AVFDSKLFLQSWVASTGIRV , report its measured amyloid nucleation score.
**Result** inactive

----------
Assay: amyloid nucleation score (Sup35N fusion, yeast selection) (log enrichment); library NNK2; higher = more nucleation; inactive = no reads after selection
parameter: amyloid nucleation score

seq-string: LETGNRRHTEYLCYDVWVIL
parameter: amyloid nucleation score
result: 0.394

seq-string: GARYTIWECF
parameter: amyloid nucleation score
result: inactive

seq-string: VRNKMSGPLMFIIGLDLSCN
parameter: amyloid nucleation score
result: inactive

----------
Assay: amyloid nucleation score (Sup35N fusion, yeast selection) (log enrichment); library NNK2; higher = more nucleation; inactive = no reads after selection
parameter: amyloid nucleation score

seq-string: ETLPLNIILYACGEPHWFLL
result: -0.407

seq-string: TSWCSIHTVMLYLFLIVCQY
result: inactive

seq-string: VNCIASSFSLPRRTLSNSMD
result: inactive

----------
Assay: amyloid nucleation score (Sup35N fusion, yeast selection) (log enrichment); library NNK2; higher = more nucleation; inactive = no reads after selection
parameter: amyloid nucleation score

For orientation, consider the following solved cases.
seq-string: HMYVGHGLNVFAYISMLGVY
amyloid nucleation score: inactive
//
seq-string: SFVNFCRLRASLCAVAISTT
amyloid nucleation score: inactive
//
seq-string: ASGVFSLAEYNFFGISKKSF
amyloid nucleation score: inactive
//
seq-string: TVLPAVCYGVLNSRFRVTME
amyloid nucleation score: inactive

// for each sequence below, give its amyloid nucleation score
1. HVLHCTYSQSSMEQLFCFNW
2. DVSNLWFTNFCGFWGKYVVK

**Result**
1: inactive; 2: inactive

----------
Experiment: amyloid nucleation score (Sup35N fusion, yeast selection) (log enrichment); library NNK1; higher = more nucleation; inactive = no reads after selection

seq-string: RMYWVDFAGLFIDCL
amyloid nucleation score: inactive

seq-string: ENMGELCA
amyloid nucleation score: inactive

seq-string: KSLVKYKWNLTFILY
amyloid nucleation score: inactive

seq-string: SNFHRNVYRGYRV
amyloid nucleation score: inactive
